Test system: HSkMC (human skeletal muscle cells)
ASSAY_OVERVIEW: cytotoxicity call (relative viability < 0.9)
CONDITION_SET: 10 µM
The campaign covered roughly 39,000 compounds. About 1,500 (3.8%) were called active. This is one part of a sample in which actives are shown more often than they occur.
Field 'call' accepts active, inactive

Solved cases below.
{"SMILES_DATA": "Cc1noc(C)c1NC(=O)Nc1ccc2c(c1)C(=O)N([C@H](C)CO)C[C@H](C)[C@H](CN(C)S(=O)(=O)c1cccs1)OCCCC[C@H](C)O2", "GROUP": "inactive"}
{"SMILES_DATA": "C[C@@H]1CCCCO[C@H](CN(C)Cc2ccccc2)[C@@H](C)CN([C@@H](C)CO)C(=O)c2cc(NC(=O)Nc3ccc(C(F)(F)F)cc3)ccc2O1", "GROUP": "active"}
{"SMILES_DATA": "CC(=O)Nc1ccc(S(=O)(=O)CCO)cc1", "GROUP": "inactive"}

Consider the additional compound presented here.
In: I'd appreciate the recorded outcome for `Cc1noc(C)c1NC(=O)N(C)C[C@H]1Oc2c(NC(=O)NC(C)C)cccc2C(=O)N([C@@H](C)CO)C[C@H]1C` from this test.
Out: inactive
